The following binders are listed with their measured pKd values.
# targetEntity: T1, hK1 (human tissue kallikrein 1), recombinant (human, UniProt P06870 25-262)
# T1 construct: Expressed in P. pastoris from KLK1 cDNA and purified; enzymatically active; also called KLK1; Recombinant (Pichia) Kallikrein
# protocolSummary: SPR
The scale used: pKd is minus the common logarithm of the concentration in molar units.

Example binders with recorded pKd:
binder: M0092-G06 (Fab, V domains shown) VH: EVQLLESGGGLVQPGGSLRLSCAASGFTFSHYGMNWVRQAPGKGLEWVSSIWSSGGYTTYADSVKGRFTISRDNSKNTLYLQMNSLRAEDTAVYYCARVGIWYSMDVWGQGTTVTVSS VL: AQSELTQPRSVSGSPGQSVTISCTGTSGEVANYNYVSWYHQDPGLVPKLKIYDVSRRPSGVPDRFSGAKSGDTASLTISGLQAEDEGDYYCASYVGNDKLVFGGGTKLTVLG
valueType: pKd
recordedValue: 7.51
--
binder: M0103-A03 (Fab, V domains shown) VH: EVQLLESGGGLVQPGGSLRLSCAASGFTFSHYPMSWVRQAPGKGLEWVSYIRSGGYTTYADSVKGRFTISRDNSKNTLYLQMNSLRAEDTAVYYCARERVFCSGGRCGSYFDYWGQGTLVTVSS VL: DIQMTQSPSSVSASVGDRVTITCRASQDVRRFLAWYQQKPGKAPKLLIYAASSLQSGVPSRFSGSGSGTDFTLTISSLQPEDFATYYCQQANSFPITFGQGTRLEIKR
valueType: pKd
recordedValue: 7.97
--
binder: M0134-B03 (Fab, V domains shown) VH: EVQLLESGGGLVQPGGSLRLSCAASGFTFSHYSMFWVRQAPGKGLEWVSSIYPSGGQTDYADSVKGRFTISRDNSKNTLYLQMNSLRAEDTAVYYCARRGLLWSFDSWGQGTLVTVSS VL: AQSALTQPPSASGSPGQSVTISCTGTSSDVGAYNYVSWYQQHPGKAPKLIIYEVNKRPSGVPDRFSASKSGNTASLTVSGLQAEDEADYYCNSYAGSNSLIFGGGTKLTVLG
valueType: pKd
recordedValue: 8.62

Next up:
// query pKd value for entry M0117-F04 (Fab, V domains shown) VH: EVQLLESGGGLVQPGGSLRLSCAASGFTFSMYVMNWVRQAPGKGLEWVSRIGSSGGGTLYADSVKGRFTISRDNSKNTLYLQMNSLRAEDTAVYYCARVSVYRIRNYYYYAMDVWGQGTTVTVSS VL: DIQMTQSPSSLSASVGDRVTITCRASQGIGNYLAWYQQKPGKAPNLLIYKTSNLQSGVPSRFRGSGSGTEFTLTITSVQPDDFATYFCQRYDSYSQYIFGQGTKLETKR
8.18
